Assign Activity to each entry below.
# Assay Notes: Inhibition of human BuChE D70G mutant assessed as dissociation constant for Michaelis complex formation by enzyme kinetic study
Answers are plain numbers, in µM.

// known answers, use as guide
> print(dat)
                                     smiles  meas.value
1  O=C(NCc1ccccc1)O[C@H]1CO[C@H]2[C@@H]1OC[C@H]2OC(=O)c1ccccc1O       0.067
2  CCNC(=O)O[C@H]1CO[C@H]2[C@@H]1OC[C@H]2OC(=O)c1ccccc1O        0.32
3  CCCCNC(=O)O[C@H]1CO[C@H]2[C@@H]1OC[C@H]2OC(=O)c1ccccc1         2.7

Turning to the following compound.
Kindly note the recorded Activity for O=C(NCc1ccccc1)O[C@H]1CO[C@H]2[C@@H]1OC[C@H]2OC(=O)c1ccccc1 , which is 2.4
